# TESTED TARGET: UniProt:P43490
# PROTOCOL SUMMARY: Human recombinant enzyme assay (NMN fluorescence biochemical assay)
# CONDITION NOTES: concentration that gives half-maximal activation; 6 nM human NAMPT, 60 min
PARAMETER: EC50 (µM)
State the answer as a number, implicitly in µM.

Name the recorded EC50 for Cc1nc(C(=O)N2CC(OC(F)(F)F)C2)nc(NCCc2cn[nH]c2)c1C . 5.98

---

Each entry below carries its recorded pEC50.
# TESTED TARGET: human NAMPT (Homo sapiens (Human))
# PROTOCOL SUMMARY: Human recombinant enzyme assay (NMN fluorescence biochemical assay)
# CONDITION NOTES: concentration that gives half-maximal activation; 6 nM human NAMPT, 60 min
Scale: pEC50 equals -log10([C]), with [C] in mol/L.

Some solved entries appear below for comparison.
INSERT INTO results (compound, assay_result) VALUES
  ('Cc1nc(C(=O)NCc2cccc(F)n2)nc(NCCc2cn[nH]c2)c1C', 5.33),
  ('Cc1nc(C(=O)NCCC(C)(C)C(F)(F)F)nc(NCCc2cn[nH]c2)c1C', 4.34),
  ('Cc1nc(C(=O)Nc2cc(F)cc(F)c2)nc(NCCc2cn[nH]c2)c1C', 4.32),
  ('Cc1nc(C(=O)N2CCC[C@@H]2c2cccc(Cl)c2)nc(NCCc2cn[nH]c2)c1C', 5.43),
  ('Cc1nc(C(=O)N2CCOC[C@@H]2Cc2ccccc2)nc(NCCc2cn[nH]c2)c1C', 5.45);

Name the recorded pEC50 for Cc1nc(C(=O)NC(c2cccc(F)c2)c2nccn2C)nc(NCCc2cn[nH]c2)c1C (centres unmarked) . 6.07

Name the recorded pEC50 for Cc1nc(C(=O)N2CC(O)(c3ccccc3)C2)nc(NCCc2cn[nH]c2)c1C . 4.89

Name the recorded pEC50 for Cc1nc(C(=O)N[C@H](C)c2cccs2)nc(NCCc2cn[nH]c2)c1C . 6.81

---

# TESTED TARGET: human NAMPT (Homo sapiens (Human))
# PROTOCOL SUMMARY: Human recombinant enzyme assay (NMN fluorescence biochemical assay)
# CONDITION NOTES: concentration of compound that generates 40% higher activity over basal; 6 nM human NAMPT, 60 min
Each entry below carries its recorded AC1.4 Human.
State the answer as a number, implicitly in µM.

INSERT INTO assay_data (compound, parameter, unit_symbol, assay_result) VALUES
  ('Cc1nc(C(=O)NCCc2ccccc2)nc(NCCc2cn[nH]c2)c1C [Compound 50]', 'AC1.4 Human', 'µM', 0.311);

Request - read-out AC1.4 Human | tested on human NAMPT (Homo sapiens (Human)) | compound Cc1nc(C(=O)N[C@H](C)C2CCCCC2)nc(NCCc2cn[nH]c2)c1C [Compound 116] 2.9705

Request - read-out AC1.4 Human | tested on human NAMPT (Homo sapiens (Human)) | compound Cc1nc(C(=O)N[C@H](C)c2coc3ccccc23)nc(NCCc2cn[nH]c2)c1C [Compound 65] 0.4805

Request - read-out AC1.4 Human | tested on human NAMPT (Homo sapiens (Human)) | compound Cc1nc(C(=O)N2CCOCC2c2cccc(Cl)c2)nc(NCCc2cn[nH]c2)c1C (stereo not shown) [Compound 12] 0.048

---

# TESTED TARGET: human NAMPT (Homo sapiens (Human), UniProt P43490)
# Sequence (P43490 whole entry): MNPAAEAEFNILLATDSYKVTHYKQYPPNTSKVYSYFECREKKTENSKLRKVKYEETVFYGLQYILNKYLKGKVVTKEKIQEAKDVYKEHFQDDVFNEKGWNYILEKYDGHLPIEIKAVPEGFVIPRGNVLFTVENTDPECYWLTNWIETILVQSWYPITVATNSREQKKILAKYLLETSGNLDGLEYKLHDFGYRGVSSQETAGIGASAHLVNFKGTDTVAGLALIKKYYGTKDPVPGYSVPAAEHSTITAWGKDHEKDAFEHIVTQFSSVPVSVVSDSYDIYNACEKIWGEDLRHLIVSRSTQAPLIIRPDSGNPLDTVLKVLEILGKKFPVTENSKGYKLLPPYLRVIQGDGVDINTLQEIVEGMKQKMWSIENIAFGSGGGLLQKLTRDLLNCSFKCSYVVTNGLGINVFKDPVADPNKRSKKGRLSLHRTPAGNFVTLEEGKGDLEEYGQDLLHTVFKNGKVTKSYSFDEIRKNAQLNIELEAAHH
# PROTOCOL SUMMARY: Human recombinant enzyme assay (NMN fluorescence biochemical assay)
# CONDITION NOTES: concentration of compound that generates 40% higher activity over basal; 6 nM human NAMPT, 60 min
Threshold 0.3 µM: AC1.4 Human strictly smaller gives yes (1), otherwise no (0).

Would you kindly verify if AC1.4 Human of Cc1nc(C(=O)N2CCC(c3c[nH]c4ccccc34)CC2)nc(NCCc2cn[nH]c2)c1C is strictly less than 0.3 µM? yes (1)

Would you kindly verify if AC1.4 Human of Cc1nc(C(=O)N[C@H](C)c2cncc(F)c2)nc(NCCc2cn[nH]c2)c1C is strictly less than 0.3 µM? no (0)

Would you kindly verify if AC1.4 Human of Cc1nc(C(=O)N[C@H](C)c2ccsc2)nc(NCCc2cn[nH]c2)c1C is strictly less than 0.3 µM? yes (1)

---

# TESTED TARGET: human NAMPT (Homo sapiens (Human))
# PROTOCOL SUMMARY: Human recombinant enzyme assay (NMN fluorescence biochemical assay)
# CONDITION NOTES: concentration of compound that generates 40% higher activity over basal; 6 nM human NAMPT, 60 min
PARAMETER: AC1.4 Human

INSERT INTO results (molecule, parameter, assay_result) VALUES
  ('Cc1nc(C(=O)NCc2ncccc2F)nc(NCCc2cn[nH]c2)c1C [Compound 120]', 'AC1.4 Human', '2.443 µM'),
  ('Cc1nc(C(=O)N[C@H](C)c2cccc(F)n2)nc(NCCc2cn[nH]c2)c1F [Compound 149]', 'AC1.4 Human', '0.02 µM'),
  ('Cc1nc(C(=O)NC2(c3ccccn3)CCC2)nc(NCCc2cn[nH]c2)c1C [Compound 145]', 'AC1.4 Human', '4.9555 µM');

Name the recorded AC1.4 Human for Cc1nc(C(=O)NCCc2ccncc2F)nc(NCCc2cn[nH]c2)c1C [Compound 113] . 2.084 µM

Name the recorded AC1.4 Human for Cc1nc(C(=O)N2CCOCC2c2ccc(F)cc2)nc(NCCc2cn[nH]c2)c1C (centres unmarked) [Compound 67] . 0.505 µM

Name the recorded AC1.4 Human for Cc1nc(C(=O)N[C@H](C)c2ccco2)nc(NCCc2cn[nH]c2)c1C [Compound 75] . 0.7725 µM

Name the recorded AC1.4 Human for Cc1cccc([C@H]2CCCN2C(=O)c2nc(C)c(C)c(NCCc3cn[nH]c3)n2)n1 [Compound 131] . 3.487 µM

Name the recorded AC1.4 Human for Cc1nc(C(=O)NC(C)c2ccncc2F)nc(NCCc2cn[nH]c2)c1C (centres unmarked) [Compound 110] . 1.9815 µM

---

# TESTED TARGET: human NAMPT (Homo sapiens (Human), UniProt P43490)
# PROTOCOL SUMMARY: Human recombinant enzyme assay (NMN fluorescence biochemical assay)
# CONDITION NOTES: concentration that gives half-maximal activation; 6 nM human NAMPT, 60 min
PARAMETER: pEC50
Scale: pEC50 equals -log10([C]), with [C] in mol/L.

INSERT INTO assay_data (compound, tested_target, assay_result) VALUES
  ('CNC(=O)c1nc(C)c(C)c(N(CCc2ccccc2)CCc2cn[nH]c2)n1', 'human NAMPT (Homo sapiens (Human), UniProt P43490)', 6.81),
  ('Cc1nc(C(=O)N2CCC(O)(c3ccccc3)CC2)nc(NCCc2cn[nH]c2)c1C', 'human NAMPT (Homo sapiens (Human), UniProt P43490)', 4.75),
  ('Cc1nc(C(=O)N2CCN(C)CC2c2ccccc2)nc(NCCc2cn[nH]c2)c1C (stereo not shown)', 'human NAMPT (Homo sapiens (Human), UniProt P43490)', 5.74);

Name the recorded pEC50 for Cc1nc(C(=O)N2CC(O)(c3ccccc3)C2)nc(N2CC[C@@H](c3cn[nH]c3)C2)c1C (single isomer, unassigned) . 6.20

---

# TESTED TARGET: endogenous NAMPT (Homo sapiens (Human), UniProt P43490)
# Sequence (P43490 whole entry): as above
# PROTOCOL SUMMARY: Cellular NAD+ modulation assay in SH-SY5Y cells with doxorubicin
# Assay type: cell-based
# CONDITION NOTES: Neuroblastoma SH-SY5Y cells, 40 hours, cellular NAD levels
Each entry below carries its recorded SY5Y (human) NAD Cell Dox AC0.3.
State the answer as a number, implicitly in µM.

Some solved entries appear below for comparison.
INSERT INTO measurements (molecule, unit_symbol, assay_result) VALUES
  ('Cc1nc(C(=O)N[C@H](C)c2ncccc2Cl)nc(NCCc2cn[nH]c2)c1C', 'µM', 0.88),
  ('Cc1nc(C(=O)NC(C)(C)c2ccccc2)nc(NCCc2cn[nH]c2)c1C', 'µM', 0.13),
  ('Cc1nc(C(=O)N2CCC[C@@H]2c2cccc(Cl)c2)nc(NCCc2cn[nH]c2)c1C', 'µM', 0.24);

Name the recorded SY5Y (human) NAD Cell Dox AC0.3 for Cc1nc(C(=O)N(C)C(c2cccc(F)c2)c2nccn2C)nc(NCCc2cn[nH]c2)c1C (stereo not shown) . 2.68

---

# TESTED TARGET: human NAMPT (Homo sapiens (Human), UniProt P43490)
# PROTOCOL SUMMARY: Human recombinant enzyme assay (NMN fluorescence biochemical assay)
# CONDITION NOTES: concentration that gives half-maximal activation; 6 nM human NAMPT, 60 min
Threshold 3000 nM: EC50 strictly smaller gives yes, otherwise no.

Sample answers from the record:
INSERT INTO results (compound, cat) VALUES
  ('Cc1nc(C(=O)N(C)C(c2cccc(F)c2)c2nccn2C)nc(NCCc2cn[nH]c2)c1C (centres unmarked) [Compound 5]', 'yes'),
  ('Cc1nc(C(=O)N[C@H](C)c2ccncc2)nc(NCCc2cn[nH]c2)c1C [Compound 95]', 'no'),
  ('Cc1nc(C(=O)N2CCOCC2c2cccc(F)c2)nc(NCCc2cn[nH]c2)c1C (centres unmarked) [Compound 7]', 'yes');

Would you kindly verify if EC50 of Cc1nc(C(=O)N2C[C@@H](C)OC[C@H]2c2ccccc2)nc(NCCc2cn[nH]c2)c1C [Compound 62] is strictly less than 3000 nM? no

Would you kindly verify if EC50 of Cc1nc(C(=O)N2CCOCC2(C)c2ccccc2)nc(NCCc2cn[nH]c2)c1C (centres unmarked) [Compound 25] is strictly less than 3000 nM? yes

Would you kindly verify if EC50 of Cc1nc(C(=O)NCCc2cncc(F)c2)nc(NCCc2cn[nH]c2)c1C [Compound 129] is strictly less than 3000 nM? no

Would you kindly verify if EC50 of Cc1nc(C(=O)N2CC(O)(c3cccc(F)c3)C2)nc(NCCc2cn[nH]c2)c1C [Compound 3] is strictly less than 3000 nM? yes
